# System: 786-0 renal
# assay_explanation: NCI tumour cell line growth inhibition, 48 h
Reported TGI by item:

Worked set:
{"columns": ["molecule", "value_kind", "result"],
 "data": [
  ["O=C1c2ccccc2N2OC3(N4CCCC4)CCCCC3C12c1ccccc1 (stereo not given)", "TGI", "31.6 µM"],
  ["CCN(CC)c1nnc(CCCCCCCCc2nnc(N(CC)CC)o2)o1", "TGI", "> 100 µM"],
  ["CC(C)(C)OC(=O)NCCCCC(N)NC(=O)c1ccccc1 (stereo not given)", "TGI", "> 100 µM"],
  ["COC(=O)c1cc(-c2ccc(OC)c(OC)c2)[nH]c1N/N=C/c1c(Cl)cccc1Cl", "TGI", "4.32 µM"],
  ["CN1CCN(c2ccc3c(c2)NCC(=O)N3)CC1", "TGI", "> 100 µM"]
]}

The record that follows has no TGI shown yet.
I have this molecule here, `COc1ccc(Nc2ccnc(N3CCN(c4ccnc5cc(Cl)ccc45)CC3)n2)cc1` , and I need its recorded TGI.
6.87 µM

====

# System: EKVX NSCLC
# assay_explanation: NCI tumour cell line growth inhibition, 48 h
value_kind: TGI

{"columns": ["compound", "value_kind", "result"],
 "data": [
  ["COc1cc(Nc2nc3cc(C(F)(F)F)ccc3n3cccc23)cc(OC)c1OC", "TGI", "> 100 µM"]
]}

# query: TGI of entry Clc1ccc(C2ON=C(c3ccccc3)N2C23CC4CC(CC(C4)C2)C3)cc1 (configuration not stated)
> 10 µM

Using the record for `O=C(O)c1ccccc1NC(=S)c1ccccc1` , report its TGI.
> 100 µM

====

# System: U251 CNS
# assay_explanation: NCI tumour cell line growth inhibition, 48 h
value_kind: TGI

{"columns": ["molecule", "value_kind", "result"],
 "data": [
  ["O=[N+]([O-])c1ccc(C(O)(C#CCN2CCCC2)c2ccccc2)cc1 (centres undefined)", "TGI", "> 100 µM"],
  ["Clc1ccc2oc(CCc3ccccc3)nc2c1", "TGI", "> 100 µM"],
  ["c1cc(-c2cn3c(n2)SCC3)ccn1", "TGI", "> 100 µM"],
  ["O=NN(CCF)C(=O)NC1CCSCC1", "TGI", "> 100 µM"],
  ["Nc1n[nH]c2ccc([C@@H]3Nc4cc5c(cc4[C@H]4C6CCC(C6)[C@@H]34)C(=O)NC5)cc12 (some centres undefined)", "TGI", "> 100 µM"],
  ["O=Nc1c(-c2c(O)[nH]c3ncccc23)[nH]c2ccccc12", "TGI", "> 100 µM"],
  ["CCCCNc1nc(NC2OCC(OC(C)=O)C(OC(C)=O)C2OC(C)=O)c(N=O)c(=O)n1C (centres undefined)", "TGI", "> 10 µM"],
  ["COc1ccc(CNc2cc(=O)n(C)c(=O)[nH]2)cc1", "TGI", "> 100 µM"],
  ["Oc1cc(-n2cccn2)c(O)cc1-n1cccn1", "TGI", "> 78.2 µM"],
  ["N#Cc1nc(C#N)n(S(=O)(=O)c2ccccc2)c1NS(=O)(=O)c1ccccc1", "TGI", "> 100 µM"]
]}

If you can, please state the reported TGI value of CC1C=CC(OC(=O)C(C)(O)CCC(O)(C(=O)OC2CC(O)C(C(C)C)CC2(C)O)C(C)C)(C(C)C)CC1 (centres undefined) .
1.32 µM

Reported TGI for `Oc1c(-c2cc(C(F)(F)F)[nH]n2)cc(Cl)c(OCc2ccc(Cl)cc2)c1-c1ccc(Cl)c(C(F)(F)F)c1` : what is it?
5.76 µM

Look up TGI for this molecule: `COc1cc2c(cc1F)C(c1ccccc1Cl)=Nc1c(n[nH]c1C)N2`
18.3 µM

Look up TGI: CCC1C(c2ccccc2O)c2cc3c(cc2OC1N1CCOCC1)OCO3 (centres undefined)
26.4 µM

====

# Test system: OVCAR-3 ovarian
# assay_explanation: NCI tumour cell line growth inhibition, 48 h
Label -1 if TGI falls below 20 µM; label 1 in every other case.

Some solved cases for reference:
{"columns": ["compound", "target_entity", "qualitative_label"],
 "data": [
  ["C1CSCCSCCCSCCSCCCSCCSCCCSCCSC1", "OVCAR-3 ovarian", 1],
  ["Cc1ccncc1C(N)=O", "OVCAR-3 ovarian", 1],
  ["N#CCN1C(=O)c2cc([N+](=O)[O-])cc3cc([N+](=O)[O-])cc(c23)C1=O", "OVCAR-3 ovarian", 1],
  ["CC(C)/C(Cl)=N/OC(=O)Nc1ccc(Cl)c(Cl)c1", "OVCAR-3 ovarian", -1],
  ["O=c1c2cc(F)ccc2sc2c(NCCCNCCO)nc3ccccc3c12", "OVCAR-3 ovarian", -1],
  ["COc1ccc(Nc2ccnc(N3CCN(c4ccnc5cc(Cl)ccc45)CC3)n2)cc1", "OVCAR-3 ovarian", -1],
  ["O=Cc1ccc2c(c1I)OCO2", "OVCAR-3 ovarian", 1],
  ["C=C1CC[C@@H](C)[C@](C)(CCc2ccoc2)C/C=C\\C=C/1C(=O)O", "OVCAR-3 ovarian", 1],
  ["Nc1n[nH]c2ccc([C@@H]3Nc4cc5c(cc4[C@H]4C6CCC(C6)[C@@H]34)C(=O)NC5)cc12 (some centres not stated)", "OVCAR-3 ovarian", -1],
  ["COc1ccc2c3c1O[C@H](c1ccc(O)cc1)[C@H]3[N+](C)(C)CC2", "OVCAR-3 ovarian", 1]
]}

Could you verify whether the entry CC1C=CC(OC(=O)C(C)(O)CCC(O)(C(=O)OC2CC(O)C(C(C)C)CC2(C)O)C(C)C)(C(C)C)CC1 (configuration not stated) shows TGI of no less than 20 µM?
-1

====

# System: NCI-H460 lung
# assay_explanation: NCI tumour cell line growth inhibition, 48 h
Tick 1 if TGI is 30 µM or greater. Tick -1 if TGI is less than 30 µM.

{"columns": ["compound", "target_entity", "qualitative_label"],
 "data": [
  ["CC(C)/C(Cl)=N/OC(=O)Nc1ccc(Cl)c(Cl)c1", "NCI-H460 lung", 1],
  ["O=[N+]([O-])c1ccc(C(O)(C#CCN2CCCC2)c2ccccc2)cc1 (stereo not given)", "NCI-H460 lung", 1],
  ["CCOC(=O)/C(I)=C/c1cc(OC)c(OC)c(OC)c1", "NCI-H460 lung", 1],
  ["c1ccc2c(c1)CCc1c-2n[nH]c1-c1[nH]nc2c1CCc1ccccc1-2", "NCI-H460 lung", 1],
  ["O=C1C(OCCOc2ccccc2)=C(OCCOc2ccccc2)C(=O)c2ccccc21", "NCI-H460 lung", -1]
]}

For the next question, use this compound.
Answer whether TGI of `COc1cc(O)c2c(=O)c(OC)c(-c3ccc(OC)c(OC)c3)oc2c1` is greater than or equal to 30 µM.
1

====

Listing of recorded GI50 by entry.
# Tested on: HOP-92 NSCLC
# assay_explanation: NCI tumour cell line growth inhibition, 48 h

Answered examples (4):
{"columns": ["compound", "GI50"],
 "data": [
  ["CCN1C(=O)N(CC)C2C1NN=c1s/c(=C\\c3ccc(F)cc3)c(=O)n12 (stereo not given)", "7430 nM"],
  ["COc1ccc(Nc2ccnc(N3CCN(c4ccnc5cc(Cl)ccc45)CC3)n2)cc1", "320 nM"],
  ["COc1cc(C(=O)c2cc(C)c3[nH]c4ccc(O)cc4c3c2C)cc(OC)c1OC", "944 nM"],
  ["COc1cc2c(cc1F)C(c1ccccc1Cl)=Nc1c(n[nH]c1C)N2", "1340 nM"]
]}

With those in mind, consider the next compound.
Which GI50 is reported for this compound? Cc1ccc(C2C3Cc4ccccc4C3=NN2c2ccc(S(=O)(=O)/N=c3\scc(-c4ccccc4)n3-c3ccccc3)cc2)cc1 (stereo not given)
18800 nM

====

Below, each entry is listed alongside its reported TGI.
# Test system: NCI/ADR-RES ovarian
# assay_explanation: NCI tumour cell line growth inhibition, 48 h

Some solved entries appear below for comparison.
{"columns": ["compound", "TGI"],
 "data": [
  ["C=CCC1(C)CCCN(Cc2ccccc2)C1=O (stereo not given)", "> 10 µM"],
  ["CCOC(=O)c1c[nH]c2ccc3c(c2c1=O)S(=O)(=O)CC3 (tested in a mixture with another compound)", "> 100 µM"],
  ["C=CCOc1ccc(C2C(C(=O)OC)C(=O)CC(O)(c3ccccc3)C2C(=O)OC)cc1OC (stereo not given)", "66 µM"],
  ["CCN1C(=O)N(CC)C2C1NN=c1s/c(=C\\c3ccc(F)cc3)c(=O)n12 (stereo not given)", "> 100 µM"],
  ["COc1cc(-c2nn(-c3cccc(NC(=O)CCN4CCN(Cc5ccccc5)CC4)c3)cc2-c2ccncc2)ccc1Cl", "2.28 µM"]
]}

// below: TGI requested for another compound
Give the reported TGI for `O=c1[nH]c2nc3ccccc3c(=O)n2/c1=C/c1ccco1` (system: NCI/ADR-RES ovarian).
> 100 µM

Hey, just so you know, these numbers are from PubChem BioAssay (NCI).
